- TARGET_OR_TEST_SYSTEM: GST-Hu-p50 (Homo sapiens, UniProt P19838 7-356)
- Sequence (P19838 7-356): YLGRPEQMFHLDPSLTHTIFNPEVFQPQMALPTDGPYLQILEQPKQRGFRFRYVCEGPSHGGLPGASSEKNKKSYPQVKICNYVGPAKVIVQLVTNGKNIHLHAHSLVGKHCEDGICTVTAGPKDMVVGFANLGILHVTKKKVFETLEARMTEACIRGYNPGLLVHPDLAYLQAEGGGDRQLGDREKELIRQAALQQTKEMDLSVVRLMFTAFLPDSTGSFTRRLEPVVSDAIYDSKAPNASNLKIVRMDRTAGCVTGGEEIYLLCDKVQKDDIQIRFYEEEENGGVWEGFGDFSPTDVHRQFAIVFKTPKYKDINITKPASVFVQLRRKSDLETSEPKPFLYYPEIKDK
- RUN_DESCRIPTION: protein-binding microarray (PBM); PBM: ~300 nM protein, 6 mM HEPES pH 7.8, 80 mM KCl, 0.5 mM EDTA, 0.5 mM EGTA, 6% glycerol, 35 ng/ul poly-dIdC, 1% milk, 1 h, room temperature; Ap Aiptasia and Nv Nematostella (sea anemones) / Co Capsaspora / Aq Amphimedon (sponge) / Dm Drosophila / Hu human; RHD is the Rel homology domain; high values mean tight binding
- PARTICULARS: dsDNA, one strand shown
# maps each entry to its binding signal
Quick reminder: number only, in z-score, skip the unit.

RESIDUE_STRING: CCGATTAACATCACGAATTCCCCTGATGTTAATCGGGTCTTGATTCGCTTGACGCTGCTG
TARGET_OR_TEST_SYSTEM: GST-Hu-p50 (Homo sapiens, UniProt P19838 7-356)
OUTCOME_MEASURE: binding signal
QUANTITATIVE_RESULT: 6.95

Okay, now this sequence:
Suppose we examine the sequence CCGATTAACATCAAATTTCCCGATGATGTTAATCGGGTCTTGATTCGCTTGACGCTGCTG ; what binding signal value has been reported?
3.9

FYI, the data here is from paper PMC5700166.
